Hey, just so you know, these numbers are from PubChem BioAssay (NCATS).

system.tested: Cytochrome P450 2C19 (Homo sapiens) (UniProt P33261)
Sequence (P33261 whole entry, looked up): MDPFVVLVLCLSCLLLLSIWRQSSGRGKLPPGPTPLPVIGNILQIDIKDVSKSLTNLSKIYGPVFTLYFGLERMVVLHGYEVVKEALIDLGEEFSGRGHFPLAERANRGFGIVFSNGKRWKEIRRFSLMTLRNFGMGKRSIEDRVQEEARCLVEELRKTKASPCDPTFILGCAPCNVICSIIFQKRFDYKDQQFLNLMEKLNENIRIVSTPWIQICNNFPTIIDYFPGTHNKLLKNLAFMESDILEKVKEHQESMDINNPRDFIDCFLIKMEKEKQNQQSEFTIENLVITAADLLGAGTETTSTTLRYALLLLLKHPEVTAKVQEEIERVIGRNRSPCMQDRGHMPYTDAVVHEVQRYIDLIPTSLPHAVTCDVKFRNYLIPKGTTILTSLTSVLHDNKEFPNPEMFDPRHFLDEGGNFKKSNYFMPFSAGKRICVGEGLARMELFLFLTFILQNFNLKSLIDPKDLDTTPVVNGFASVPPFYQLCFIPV
procedure.details: qHTS Assay for Inhibitors and Substrates of Cytochrome P450 2C19 (AID 899); also: nearly all actives have a fitted effect of over 60% in size
measurement.conditions: recombinant CYP2C19, luciferin-H EGE luminescence; series mostly up to 11.4 µM
Records with an inconclusive call do not appear. Calls of active or inactive are those of the source. Calls follow the shape of the dose curve; as a rule, active = well fitted inhibition curve with a large enough effect; inconclusive = small, poorly fitted or top-dose-only effect; inactive = no such curve, though single readings can be large or run the other way.
Possible outcomes: TRUE (active), FALSE (inactive)

smiles.data: CC1(C)[C@@H]2CC[C@@](C)(C2)[C@H]1OC(=O)c1ccccc1C(=O)O
class.name: FALSE
//
smiles.data: c1ccc(SCCc2ccncc2)cc1
class.name: TRUE
//
smiles.data: Cc1ccc(C2=Nc3ccccc3S[C@@H](c3cccc([N+](=O)[O-])c3)C2)cc1
class.name: TRUE
//
smiles.data: O=c1cnc2cnc(Oc3ccccc3)nc2n1CCc1ccccc1
class.name: TRUE
//
smiles.data: C[C@@]12C(=O)OC(=O)[C@@]1(C)[C@H]1CC[C@@H]2O1
class.name: FALSE
//
smiles.data: COc1cc(OC)cc([C@H](CNc2ncnc3c2ncn3[C@@H]2O[C@@H](CO)[C@H](O)[C@@H]2O)c2ccccc2C)c1
class.name: FALSE
//
smiles.data: Cc1cc(C(C)(C)C)cc(CNC2CCCCC2)c1O
class.name: TRUE
//
smiles.data: C[N+](C)(C)c1ncnc2c1ncn2[C@@H]1CCCCO1
class.name: FALSE
//
smiles.data: O=C(c1cc(Br)ccc1O)c1cc(Br)ccc1O
class.name: TRUE
//
smiles.data: COc1ccc(C(=O)N/N=C2/C(=O)c3c(C)cc(C)cc3CC2(C)C)cc1
class.name: TRUE
//
smiles.data: O=C(O)CC[P+](c1ccccc1)(c1ccccc1)c1ccccc1
class.name: FALSE
